- Tested on: pigweed
- Method: Test B pre-/postemergence herbicide test
- Assay type: in vivo, Amaranthus retroflexus
- Condition Description: postemergence, 125 g ai/ha; visual rating, scale 0 (no effect) to 100 (complete control)
1 if Pigweed plant response rating is below 20. 0 if not; exact matches included in 0.

Query: Hi there! Is Pigweed plant response rating for `C#CCn1nc(C(C)(C)C)cc1C(=O)Nc1cccc(C(=O)NCC)c1` below 20, do you know?
Reply: 0

Query: Hi there! Is Pigweed plant response rating for `CCCCOC(=O)c1cccc(NC(=O)c2cc(C(C)(C)C)nn2CC)c1` below 20, do you know?
Reply: 0

Query: Hi there! Is Pigweed plant response rating for `CCn1nc(C(C)(C)C)cc1C(=O)Nc1cccc(C(=O)OC(C)(C)C)c1` below 20, do you know?
Reply: 1

Query: Hi there! Is Pigweed plant response rating for `C=CCNC(=O)c1ccc(F)c(NC(=O)c2sc(CC)nc2C(C)(C)C)c1` below 20, do you know?
Reply: 0

Query: Hi there! Is Pigweed plant response rating for `CCn1nc(C(C)(C)C)cc1C(=O)Nc1nc(OC)cc(OC)n1` below 20, do you know?
Reply: 1

Query: Hi there! Is Pigweed plant response rating for `CCON=C(C)c1cccc(NC(=O)c2cc(C(C)(C)C)nn2C)c1` below 20, do you know?
Reply: 1

More entries:
Query: Hi there! Is Pigweed plant response rating for `CCn1nc(C(C)(C)C)cc1C(=O)Nc1cc(C(=O)N2CC=CC2)ccn1` below 20, do you know?
Reply: 0

Query: Hi there! Is Pigweed plant response rating for `C=Cn1nc(C(C)(C)C)cc1C(=O)Nc1cccc(C(C)=O)c1` below 20, do you know?
Reply: 0

Query: Hi there! Is Pigweed plant response rating for `CCOC(=O)c1cccc(NC(=O)c2cc(C(C)(C)C)nn2CC)c1OC` below 20, do you know?
Reply: 1

Query: Hi there! Is Pigweed plant response rating for `COC(=O)c1cccc(NC(=O)c2sc(C(C)(C)C)nc2C)c1` below 20, do you know?
Reply: 1

Query: Hi there! Is Pigweed plant response rating for `CCNC(=O)c1cccc(NC(=O)c2cn(C(C)(C)C)nc2C)c1` below 20, do you know?
Reply: 0

* * *

- System: soybean
- Method: Test C pre-/postemergence herbicide test
- Format: in vivo, Glycine max
- Condition Description: Postemergence; 250 g ai/ha; scale 0 to 100, 0 no effect, 100 complete control
- From the text: […]
Property Name: Plant response rating, Soybean
Write the value as a bare number.

Some molecules with known Plant response rating, Soybean results, for comparison:
Query: Using the record for `C=Cn1nc(C(C)(C)C)cc1C(=O)Nc1cccc(C(C)=NO)c1` , report its Plant response rating, Soybean.
Reply: 70

Query: Using the record for `CC(=NO)c1cccc(NC(=O)c2cc(C(C)(C)C)nn2CCF)c1` , report its Plant response rating, Soybean.
Reply: 80

Query: Using the record for `CCn1nc(C(C)(C)C)cc1C(=O)Nc1cccc(SC(F)(F)F)c1` , report its Plant response rating, Soybean.
Reply: 40

Now consider a different molecule.
Query: Using the record for `CCNC(=O)c1cc(NC(=O)c2cc(C(C)(C)C)nn2CC)ccc1F` , report its Plant response rating, Soybean.
Reply: 80

* * *

- System: corn
- Method: Test C pre-/postemergence herbicide test
- Type: in vivo, Zea mays
- Condition Description: 500 g ai/ha; scale 0 to 100 (0 no effect, 100 complete control); visual, 12 to 14 days; preemergence
Recorded Plant response rating, Corn for the following compounds
Write the value as a bare number.

Query: What is its Plant response rating, Corn for corn? Entry: `CCn1nc(C(C)(C)C)cc1C(=O)Nc1cccc(OC(F)F)c1`
Reply: 5

Query: What is its Plant response rating, Corn for corn? Entry: `Cc1nn(C(C)(C)C)nc1C(=O)Nc1cccc(C(=O)N2CC=CC2)c1`
Reply: 100

Query: What is its Plant response rating, Corn for corn? Entry: CCN(C)C(=O)c1ccc(F)c(NC(=O)C2CC(C(C)(C)C)=NN2CC)c1 (racemic)
Reply: 45

Query: What is its Plant response rating, Corn for corn? Entry: `CCc1nn(C(C)(C)C)nc1C(=O)Nc1cccc(C(=S)N(C)C)c1`
Reply: 90

* * *

- Tested on: large crabgrass
- Method: Test A pre-/postemergence herbicide test
- Format: in vivo, Digitaria sanguinalis
- Condition Description: Preemergence, 2000 g ai/ha; visual rating, 0 to 100 scale (0 no effect, 100 complete control)
- Text: […] Plants ranged in height from 2 to 10 cm and were in the one- to two-leaf stage for the postemergence treatment. Treated plants and untreated controls were maintained in a greenhouse for approximately ten days, after which time all treated plants were compared to untreated controls and visually evaluated for injury. […]
# Crabgrass, Large plant response rating >= 20 gives condition met, anything below gives condition not met

Here are 5 compounds together with their reported answers.
Query: Could you tell me if the measured Crabgrass, Large plant response rating of `CCOC(=O)c1cncc(NC(=O)c2cc(C(C)(C)C)nn2CC)c1` reaches 20 or more?
Reply: condition met

Query: Could you tell me if the measured Crabgrass, Large plant response rating of `CCOC(=O)c1cccc(NC(=O)c2cc(C(C)(C)C)nn2CC)c1OC` reaches 20 or more?
Reply: condition not met

Query: Could you tell me if the measured Crabgrass, Large plant response rating of `CCc1nn(C(C)(C)C)cc1C(=O)Nc1cc(C(=O)N(CC)CC)ccc1F` reaches 20 or more?
Reply: condition met

Query: Could you tell me if the measured Crabgrass, Large plant response rating of `CC(C)NS(=O)(=O)c1cccc(NC(=O)c2cc(C(C)(C)C)nn2C)c1` reaches 20 or more?
Reply: condition not met

Query: Could you tell me if the measured Crabgrass, Large plant response rating of `CCn1nc(C(C)(C)C)cc1C(=O)Nc1cc(OC)ccc1F` reaches 20 or more?
Reply: condition not met

More entries:
Query: Could you tell me if the measured Crabgrass, Large plant response rating of `CCCCNS(=O)(=O)c1cccc(NC(=O)c2cc(C(C)(C)C)nn2C)c1` reaches 20 or more?
Reply: condition not met

Query: Could you tell me if the measured Crabgrass, Large plant response rating of `CC(=NO)c1cccc(NC(=O)c2sc(C(C)(C)C)nc2C)c1` reaches 20 or more?
Reply: condition met

Query: Could you tell me if the measured Crabgrass, Large plant response rating of CCC(C)c1cc(C(=O)Nc2cccc(C(C)=NO)c2)n(C)n1 (centres unmarked) reaches 20 or more?
Reply: condition met

Query: Could you tell me if the measured Crabgrass, Large plant response rating of `CCn1nc(C(C)(C)C)cc1C(=O)Nc1nc(OC)cc(OC)n1` reaches 20 or more?
Reply: condition met

* * *

- Tested on: velvetleaf
- Method: Test C pre-/postemergence herbicide test
- Assay type: in vivo, Abutilon theophrasti
- Condition Description: 500 g ai/ha; scale 0 to 100 (0 no effect, 100 complete control); visual, 12 to 14 days; preemergence
Recorded Plant response rating, Velvetleaf for the following compounds

Query: Using the record for CCNC(=O)c1cccc(NC(=O)c2cc(C3(C)CC3)nn2CC)c1 [Compound 306] , report its Plant response rating, Velvetleaf.
Reply: 10

Query: Using the record for CCC1=NN(C(C)(C)C)CC1C(=O)Nc1cc(C(=O)N(C)C)ccc1F (racemic) [Compound 343] , report its Plant response rating, Velvetleaf.
Reply: 100

Query: Using the record for CCn1nc(C(C)(C)C)cc1C(=S)Nc1cc(C(=S)N(C)C)ccc1F [Compound 305] , report its Plant response rating, Velvetleaf.
Reply: 100

Query: Using the record for CCc1nn(C(C)(C)C)cc1C(=O)Nc1cc(C(=O)N(CC)CC)ccc1F [Compound 223] , report its Plant response rating, Velvetleaf.
Reply: 100

Query: Using the record for C=CCNC(=O)c1cccc(NC(=O)c2nn(C(C)(C)C)nc2CC)c1 [Compound 414] , report its Plant response rating, Velvetleaf.
Reply: 100

Query: Using the record for CCc1nn(C(C)(C)C)nc1C(=O)Nc1cccc(C(=S)N(C)C)c1 [Compound 395] , report its Plant response rating, Velvetleaf.
Reply: 100

* * *

- Test system: johnsongrass
- Method: Test C pre-/postemergence herbicide test
- Format: in vivo, Sorghum halepense
- Condition Description: 500 g ai/ha; scale 0 to 100 (0 no effect, 100 complete control); visual, 12 to 14 days; preemergence
Property Name: Plant response rating, Johnsongrass

Query: Using the record for Cc1nn(C(C)(C)C)nc1C(=O)Nc1cccc(C(=O)N2CC=CC2)c1 [Compound 393] , report its Plant response rating, Johnsongrass.
Reply: 100

Query: Using the record for CCNC(=O)c1cccc(NC(=O)c2sc(C(C)(C)C)nc2CC)n1 [Compound 213] , report its Plant response rating, Johnsongrass.
Reply: 80

Query: Using the record for CCc1nn(C(C)(C)C)cc1C(=O)Nc1cc(C(=O)N(C)C)ccn1 [Compound 293] , report its Plant response rating, Johnsongrass.
Reply: 100

Query: Using the record for C=CCNC(=O)c1cccc(NC(=O)c2nn(C(C)(C)C)nc2CC)c1 [Compound 414] , report its Plant response rating, Johnsongrass.
Reply: 100

Query: Using the record for CCc1nn(C(C)(C)C)nc1C(=S)Nc1cccc(C(=S)N(C)C)c1 [Compound 396] , report its Plant response rating, Johnsongrass.
Reply: 100

Query: Using the record for CCc1nn(C(C)(C)C)nc1C(=O)Nc1cccc(C(=S)N(C)C)c1 [Compound 395] , report its Plant response rating, Johnsongrass.
Reply: 100
